Recorded values, source patent US6485746B1.

# assay-procedure: Plasma pharmacokinetics of NBI-34060 (half-life, volume of distribution)
# Format: in vivo, human
# conditions-used: male, human; plasma half-life
measure-name: half-life

Reported half-life for CC(=O)N(C)c1cccc(-c2ccnc3c(C(=O)c4cccs4)cnn23)c1 [NBI-34060] was ~1.3 h

* * *

# assay-procedure: Solubility in water
# conditions-used: water, pH 8, water
measure-name: solubility

Reported solubility for CC(=O)N(C)c1cccc(-c2ccnc3c(C(=O)c4cccs4)cnn23)c1 [NBI-34060] was 20 to 30 µg/mL
